Give tissue uptake at 1 h for every item shown.
Assay: in vivo
Set-up: species or system CF-1 normal mice
Settings: CF-1, mouse, iv, total radioactivity, Pancreas uptake
Report as: number unit

Task item: Which tissue uptake at 1 h value is on record for CC(C)C[C@H](NC(=O)C[C@H](O)[C@H](CC(C)C)NC(=O)[C@H](Cc1c[nH]cn1)NC(=O)CNC(=O)[C@@H](NC(=O)[C@H](C)NC(=O)[C@H](Cc1c[nH]c2ccccc12)NC(=O)[C@H](CCC(N)=O)NC(=O)[C@@H](Cc1ccccc1)NC(=O)CCCCCNC(=O)[C@H](CCCCNC(=O)CN1CCN(CC(=O)O)CCN(CC(=O)O)CCN(CC(=O)O)CC1)NC(=O)CCCCCNC(=O)CC[C@H](NC(=O)N[C@@H](CCC(=O)O)C(=O)O)C(=O)O)C(C)C)C(N)=O [DUPA-6-Ahx-Lys(^111In-DOTA)-6-Ahx-RM2, metal not drawn] ?
Reply: 0.19 %ID/g

Task item: Report tissue uptake at 1 h for CC(C)C[C@H](NC(=O)C[C@H](O)[C@H](CC(C)C)NC(=O)[C@H](Cc1c[nH]cn1)NC(=O)CNC(=O)[C@@H](NC(=O)[C@H](C)NC(=O)[C@H](Cc1c[nH]c2ccccc12)NC(=O)[C@H](CCC(N)=O)NC(=O)[C@@H](Cc1ccccc1)NC(=O)CCCCNC(=O)[C@H](CCCCNC(=O)CN1CCN(CC(=O)O)CCN(CC(=O)O)CCN(CC(=O)O)CC1)NC(=O)CCCCCNC(=O)CC[C@H](NC(=O)N[C@@H](CCC(=O)O)C(=O)O)C(=O)O)C(C)C)C(N)=O [DUPA-6-Ahx-Lys(^111In-DOTA)-5-Ava-RM2, metal not drawn] please.
Reply: 1.02 %ID/g

Task item: Give its tissue uptake at 1 h value. Item: CC(C)C[C@H](NC(=O)C[C@H](O)[C@H](CC(C)C)NC(=O)[C@H](Cc1c[nH]cn1)NC(=O)CNC(=O)[C@@H](NC(=O)[C@H](C)NC(=O)[C@H](Cc1c[nH]c2ccccc12)NC(=O)[C@H](CCC(N)=O)NC(=O)[C@@H](Cc1ccccc1)NC(=O)c1ccc(NC(=O)[C@H](CCCCNC(=O)CN2CCN(CC(=O)O)CCN(CC(=O)O)CCN(CC(=O)O)CC2)NC(=O)CCCCCNC(=O)CC[C@H](NC(=O)N[C@@H](CCC(=O)O)C(=O)O)C(=O)O)cc1)C(C)C)C(N)=O [DUPA-6-Ahx-Lys(^111In-DOTA)-AMBA-RM2, metal not drawn]
Reply: 0.24 %ID/g

====

Test: in vivo
Parameters: species or system CF-1 normal mice
Settings: CF-1, mouse, iv, total radioactivity, Liver uptake
measured_parameter: tissue uptake at 1 h
# output: number + unit

Task item: May I ask what tissue uptake at 1 h has been recorded for CC(C)C[C@H](NC(=O)C[C@H](O)[C@H](CC(C)C)NC(=O)[C@H](Cc1c[nH]cn1)NC(=O)CNC(=O)[C@@H](NC(=O)[C@H](C)NC(=O)[C@H](Cc1c[nH]c2ccccc12)NC(=O)[C@H](CCC(N)=O)NC(=O)[C@@H](Cc1ccccc1)NC(=O)CCCCCCCNC(=O)[C@H](CCCCNC(=O)CN1CCN(CC(=O)O)CCN(CC(=O)O)CCN(CC(=O)O)CC1)NC(=O)CCCCCNC(=O)CC[C@H](NC(=O)N[C@@H](CCC(=O)O)C(=O)O)C(=O)O)C(C)C)C(N)=O [DUPA-6-Ahx-Lys(^111In-DOTA)-8-Aoc-RM2, metal not drawn] ?
Reply: 0.38 %ID/g

Task item: Return reported tissue uptake at 1 h; argument: CC(C)C[C@H](NC(=O)C[C@H](O)[C@H](CC(C)C)NC(=O)[C@H](Cc1c[nH]cn1)NC(=O)CNC(=O)[C@@H](NC(=O)[C@H](C)NC(=O)[C@H](Cc1c[nH]c2ccccc12)NC(=O)[C@H](CCC(N)=O)NC(=O)[C@@H](Cc1ccccc1)NC(=O)CCCCNC(=O)[C@H](CCCCNC(=O)CN1CCN(CC(=O)O)CCN(CC(=O)O)CCN(CC(=O)O)CC1)NC(=O)CCCCCNC(=O)CC[C@H](NC(=O)N[C@@H](CCC(=O)O)C(=O)O)C(=O)O)C(C)C)C(N)=O [DUPA-6-Ahx-Lys(^111In-DOTA)-5-Ava-RM2, metal not drawn]
Reply: 0.15 %ID/g

Task item: Reported tissue uptake at 1 h, molecule CC(C)C[C@H](NC(=O)C[C@H](O)[C@H](CC(C)C)NC(=O)[C@H](Cc1c[nH]cn1)NC(=O)CNC(=O)[C@@H](NC(=O)[C@H](C)NC(=O)[C@H](Cc1c[nH]c2ccccc12)NC(=O)[C@H](CCC(N)=O)NC(=O)[C@@H](Cc1ccccc1)NC(=O)c1ccc(NC(=O)[C@H](CCCCNC(=O)CN2CCN(CC(=O)O)CCN(CC(=O)O)CCN(CC(=O)O)CC2)NC(=O)CCCCCNC(=O)CC[C@H](NC(=O)N[C@@H](CCC(=O)O)C(=O)O)C(=O)O)cc1)C(C)C)C(N)=O [DUPA-6-Ahx-Lys(^111In-DOTA)-AMBA-RM2, metal not drawn] : ____
Reply: 0.28 %ID/g

Task item: Quick one: tissue uptake at 1 h for CC(C)C[C@H](NC(=O)C[C@H](O)[C@H](CC(C)C)NC(=O)[C@H](Cc1c[nH]cn1)NC(=O)CNC(=O)[C@@H](NC(=O)[C@H](C)NC(=O)[C@H](Cc1c[nH]c2ccccc12)NC(=O)[C@H](CCC(N)=O)NC(=O)[C@@H](Cc1ccccc1)NC(=O)CCCCCNC(=O)[C@H](CCCCNC(=O)CN1CCN(CC(=O)O)CCN(CC(=O)O)CCN(CC(=O)O)CC1)NC(=O)CCCCCNC(=O)CC[C@H](NC(=O)N[C@@H](CCC(=O)O)C(=O)O)C(=O)O)C(C)C)C(N)=O [DUPA-6-Ahx-Lys(^111In-DOTA)-6-Ahx-RM2, metal not drawn] ?
Reply: 0.23 %ID/g

====

Test: in vivo
Design: species or system CF-1 normal mice
Conditions: CF-1, mouse, iv, total radioactivity, Heart uptake
measured_parameter: tissue uptake at 1 h (%ID/g)
Hi! Could you send only the number? It should be in %ID/g, unit omitted.

Task item: Using the record for CC(C)C[C@H](NC(=O)C[C@H](O)[C@H](CC(C)C)NC(=O)[C@H](Cc1c[nH]cn1)NC(=O)CNC(=O)[C@@H](NC(=O)[C@H](C)NC(=O)[C@H](Cc1c[nH]c2ccccc12)NC(=O)[C@H](CCC(N)=O)NC(=O)[C@@H](Cc1ccccc1)NC(=O)CCCCNC(=O)[C@H](CCCCNC(=O)CN1CCN(CC(=O)O)CCN(CC(=O)O)CCN(CC(=O)O)CC1)NC(=O)CCCCCNC(=O)CC[C@H](NC(=O)N[C@@H](CCC(=O)O)C(=O)O)C(=O)O)C(C)C)C(N)=O [DUPA-6-Ahx-Lys(^111In-DOTA)-5-Ava-RM2, metal not drawn] , report its tissue uptake at 1 h.
Reply: 0.11

====

Test: in vivo
Parameters: species or system CF-1 normal mice
Conditions: CF-1, mouse, iv, total radioactivity, Brain uptake
measured_parameter: tissue uptake at 1 h (%ID/g)
Please give a number only; it is taken to be in %ID/g.

Task item: # input compound: CC(C)C[C@H](NC(=O)C[C@H](O)[C@H](CC(C)C)NC(=O)[C@H](Cc1c[nH]cn1)NC(=O)CNC(=O)[C@@H](NC(=O)[C@H](C)NC(=O)[C@H](Cc1c[nH]c2ccccc12)NC(=O)[C@H](CCC(N)=O)NC(=O)[C@@H](Cc1ccccc1)NC(=O)c1ccc(NC(=O)[C@H](CCCCNC(=O)CN2CCN(CC(=O)O)CCN(CC(=O)O)CCN(CC(=O)O)CC2)NC(=O)CCCCCNC(=O)CC[C@H](NC(=O)N[C@@H](CCC(=O)O)C(=O)O)C(=O)O)cc1)C(C)C)C(N)=O [DUPA-6-Ahx-Lys(^111In-DOTA)-AMBA-RM2, metal not drawn] ; wanted: its tissue uptake at 1 h
Reply: 0.02

====

I'd be grateful if you could share measured tissue uptake at 1 h for these entries.
Test: in vivo
Parameters: species or system CF-1 normal mice
Conditions: CF-1, mouse, iv, total radioactivity, Spleen uptake
State the answer as a number, implicitly in %ID/g.

Task item: I have this molecule here, CC(C)C[C@H](NC(=O)C[C@H](O)[C@H](CC(C)C)NC(=O)[C@H](Cc1c[nH]cn1)NC(=O)CNC(=O)[C@@H](NC(=O)[C@H](C)NC(=O)[C@H](Cc1c[nH]c2ccccc12)NC(=O)[C@H](CCC(N)=O)NC(=O)[C@@H](Cc1ccccc1)NC(=O)c1ccc(NC(=O)[C@H](CCCCNC(=O)CN2CCN(CC(=O)O)CCN(CC(=O)O)CCN(CC(=O)O)CC2)NC(=O)CCCCCNC(=O)CC[C@H](NC(=O)N[C@@H](CCC(=O)O)C(=O)O)C(=O)O)cc1)C(C)C)C(N)=O [DUPA-6-Ahx-Lys(^111In-DOTA)-AMBA-RM2, metal not drawn] , and I need its recorded tissue uptake at 1 h.
Reply: 0.15

Task item: Which tissue uptake at 1 h is reported for this molecule? CC(C)C[C@H](NC(=O)C[C@H](O)[C@H](CC(C)C)NC(=O)[C@H](Cc1c[nH]cn1)NC(=O)CNC(=O)[C@@H](NC(=O)[C@H](C)NC(=O)[C@H](Cc1c[nH]c2ccccc12)NC(=O)[C@H](CCC(N)=O)NC(=O)[C@@H](Cc1ccccc1)NC(=O)CCCCNC(=O)[C@H](CCCCNC(=O)CN1CCN(CC(=O)O)CCN(CC(=O)O)CCN(CC(=O)O)CC1)NC(=O)CCCCCNC(=O)CC[C@H](NC(=O)N[C@@H](CCC(=O)O)C(=O)O)C(=O)O)C(C)C)C(N)=O [DUPA-6-Ahx-Lys(^111In-DOTA)-5-Ava-RM2, metal not drawn]
Reply: 0.13

Task item: Which tissue uptake at 1 h reading was recorded for the molecule CC(C)C[C@H](NC(=O)C[C@H](O)[C@H](CC(C)C)NC(=O)[C@H](Cc1c[nH]cn1)NC(=O)CNC(=O)[C@@H](NC(=O)[C@H](C)NC(=O)[C@H](Cc1c[nH]c2ccccc12)NC(=O)[C@H](CCC(N)=O)NC(=O)[C@@H](Cc1ccccc1)NC(=O)CCCCCCCNC(=O)[C@H](CCCCNC(=O)CN1CCN(CC(=O)O)CCN(CC(=O)O)CCN(CC(=O)O)CC1)NC(=O)CCCCCNC(=O)CC[C@H](NC(=O)N[C@@H](CCC(=O)O)C(=O)O)C(=O)O)C(C)C)C(N)=O [DUPA-6-Ahx-Lys(^111In-DOTA)-8-Aoc-RM2, metal not drawn] ?
Reply: 0.49
